Listing of recorded self-aminoacylation by entry.
- Test system: biotinyl-Val-oxazolone
- Measurement Description: self-aminoacylation, catalytic enhancement (BVO) (fold over background); higher = more active; k-Seq, kA / k0A0; sequences stand for … in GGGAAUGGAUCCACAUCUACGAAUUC…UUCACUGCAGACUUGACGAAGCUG
Fewer inactive variants are shown than the library holds.
Readout Label: self-aminoacylation

>>> print(df.to_string())
                             sequence_record  observed_result
 0  CCACACUUCUGGCAAUCGGUC [Fam1B.1 aminoacylation ribozyme variant]             1.49
 1  AAGUGUGCUAAUAGUAGCAAG [Fam3.1 aminoacylation ribozyme variant]             1.33
 2  CCACACUAAAAGCAAUCGGUC [Fam1B.1 aminoacylation ribozyme variant]            0.959
 3  AUUACCCUGGUCAUCGAUUGU [Fam2.1 aminoacylation ribozyme variant]            0.785
 4  AAGUUUGCUAAUUCUCGCAAG [Fam3.1 aminoacylation ribozyme variant]            0.999
 5  CCACACUUCAUGCAAUAGGUC [Fam1B.1 aminoacylation ribozyme variant]            0.834
 6  AUUCAUCUAGGGCAUCGGGUG [Fam2.2 aminoacylation ribozyme variant]             2.97
 7  AAUCACCUAGCUCAUCGGGUG [Fam2.2 aminoacylation ribozyme variant]             3.17
 8  AUUACGCUGGUCAUCGAGUGG [Fam2.1 aminoacylation ribozyme variant]             1.45
 9  AUACGCCUAGGUCAUCGGGUG [Fam2.2 aminoacylation ribozyme variant]             4.07
10  CCACGCUUCAGGCAAUCGGUC [Fam1B.1 aminoacylation ribozyme variant]             1.77
11  AAGUUUGCUAAUAGUCGCAGU [Fam3.1 aminoacylation ribozyme variant]             1.34
12  CCACACUUCAAGCAACCCGUC [Fam1B.1 aminoacylation ribozyme variant]             1.17
13  AUUCACCUAGGGCAUCGGGGG [Fam2.2 aminoacylation ribozyme variant]             2.93
14  CCACCGUUCAAGCAAUCGGUC [Fam1B.1 aminoacylation ribozyme variant]             1.41
15  AUACUUCCAACAAUCGGUCUG [Fam1A.1 aminoacylation ribozyme variant]            0.727
16  AUUCGCCUAGGCCAUCGGGUG [Fam2.2 aminoacylation ribozyme variant]             4.16
17  AUGACCCUGGUCAUCGAGUAA [Fam2.1 aminoacylation ribozyme variant]             3.51
18  AAGUUGGCUAAUAGUCGGAAG [Fam3.1 aminoacylation ribozyme variant]             1.48
19  CCACACUUCAAUCCAUCGGUC [Fam1B.1 aminoacylation ribozyme variant]             0.91
20  AAGUUUGGUAAUAGUCGCACG [Fam3.1 aminoacylation ribozyme variant]             1.11
21  AUACACCUCGGUCAUCGGGUG [Fam2.2 aminoacylation ribozyme variant]             3.18
22  AAGUUUGCUAUUAGUCGCAAG [Fam3.1 aminoacylation ribozyme variant]            0.823
23  CCACACUACAAGCAAUCGGUG [Fam1B.1 aminoacylation ribozyme variant]             2.85
24  CUAUUUCAAACAAUAGGUCUG [Fam1A.1 aminoacylation ribozyme variant]             1.01
25  CCACACUUCAGACAAUCGGUC [Fam1B.1 aminoacylation ribozyme variant]             1.26
26  ACUACCCUAGUCAUCGAGUGA [Fam2.1 aminoacylation ribozyme variant]             2.64
27  GCACACUUCAAGCAAUCGGGC [Fam1B.1 aminoacylation ribozyme variant]             3.09
28  AUCCACCUAGGUUAUCGGGUG [Fam2.2 aminoacylation ribozyme variant]             4.45
29  AUUCAGCUAGAUCAUCGGGUG [Fam2.2 aminoacylation ribozyme variant]             2.85
30  CCUCACUUCAAGCAAUCGGUG [Fam1B.1 aminoacylation ribozyme variant]             4.01
31  CUUACCCUAGUCAUCGAGUGA [Fam2.1 aminoacylation ribozyme variant]             3.24
32  CUACUUCACACGAUCGGUCUG [Fam1A.1 aminoacylation ribozyme variant]            0.777
33  UAGUUUGCUAAUAGUCGCAGG [Fam3.1 aminoacylation ribozyme variant]             1.34
34  AAGUUUGCUAAUAGUCGCUAU [Fam3.1 aminoacylation ribozyme variant]            0.984
